Origin of values: patent US20050256003A1

tested on: monocotyledonous and dicotyledonous test plants; assay: Post-emergence herbicidal action; format: in vivo; details: Echinochloa, 250 g a.i./ha, about 18 days, rating 0-10
Reported Post-emergence action, Echinochloa values follow for various compounds
Measurement label: Post-emergence action, Echinochloa

Compound: COc1nn(Cc2nc(C(F)(F)F)ccc2C(=O)C2=C(O)CCCC2=O)c(=O)n1C [Compound A1.019]
Number: 8

Compound: CCN1C(=O)N(Cc2nc(C(F)(F)F)ccc2C(=O)C2=C(O)CCCC2=O)C(=O)C1C (racemic) [Compound A1.181]
Number: 4

Compound: COc1nn(Cc2nc(C(F)(F)F)ccc2C(=O)c2cnn(C)c2O)c(=O)s1 [Compound B1.096]
Number: 6

Compound: CCOc1nn(Cc2nc(C(F)(F)F)ccc2C(=O)c2cnn(C)c2O)c(=O)n1C [Compound B1.005]
Number: 4

Compound: CC(C)N1CC(=O)N(Cc2nc(C(F)(F)F)ccc2C(=O)c2cnn(C)c2O)C1=O [Compound B1.170]
Number: 9

Compound: CN1CCN(Cc2nc(C(F)(F)F)ccc2C(=O)C2=C(O)CCCC2=O)C1=S [Compound A1.202]
Number: 8

Compound: CC(C)c1cn(-c2ccccc2)c(=O)n1Cc1nc(C(F)(F)F)ccc1C(=O)c1cnn(C)c1O [Compound B1.158]
Number: 4

Compound: COc1nn(Cc2nc(C(F)(F)F)ccc2C(=O)C2=C(O)C(C)(C)C(=O)C(C)(C)C2=O)c(=O)s1 [Compound A8.095]
Number: 9

Compound: Cc1nn(CCOCc2nc(C(F)(F)F)ccc2C(=O)C2=C(O)C3CCC(C3)C2=O)c(=O)s1 (stereo not drawn) [Compound A6.082]
Number: 7

Compound: O=C1CCCC(O)=C1C(=O)c1ccc(C(F)(F)F)nc1Cn1sccc1=O [Compound A1.109]
Number: 8

Compound: CSC(=O)n1c(C)cc(=O)n1Cc1nc(C(F)(F)F)ccc1C(=O)c1cnn(C)c1O [Compound B1.062]
Number: 4

Compound: CCOc1nn(Cc2nc(C(F)(F)F)ccc2C(=O)C2=C(O)CCCC2=O)c(=O)n1C [Compound A1.037]
Number: 4

Compound: Cn1c(C(F)(F)F)nn(Cc2nc(C(F)(F)F)ccc2C(=O)C2=C(O)CCCC2=O)c1=O [Compound A1.007]
Number: 8

Compound: CCOc1nn(Cc2nc(C(F)(F)F)ccc2C(=O)c2cnn(C)c2O)c(=O)n1C1CC1 [Compound B1.056]
Number: 9

Compound: CCOc1nn(Cc2nc(C(F)(F)F)ccc2C(=O)C2=C(O)CCCC2=O)c(=O)n1C [Compound A1.043]
Number: 7

Compound: Cc1nn(Cc2nc(C(F)(F)F)ccc2C(=O)C2=C(O)C3CCC(C3)C2=O)c(=O)o1 (stereo not drawn) [Compound A6.097]
Number: 7

Compound: Cn1ncn(Cc2nc(C(F)(F)F)ccc2C(=O)C2=C(O)C3CCC(C3)C2=O)c1=O (stereo not drawn) [Compound A6.073]
Number: 9

Compound: Cn1ncn(Cc2nc(C(F)(F)F)ccc2C(=O)C2=C(O)CCCC2=O)c1=O [Compound A1.073]
Number: 9

* * *

System: monocotyledonous and dicotyledonous test plants
Test: Post-emergence herbicidal action
Assay type: in vivo
Details: Euphorbia, 250 g a.i./ha, about 18 days, rating 0-10
Excerpt: Post-Emergence Herbicidal Action […]
Reported Post-emergence action, Euphorbia values follow for various compounds

Structure as smiles: Cc1nn(Cc2nc(C(F)(F)F)ccc2C(=O)C2=C(O)C(C)(C)CC(C)(C)C2=O)c(=O)o1
Target desc: monocotyledonous and dicotyledonous test plants
Post-emergence action, Euphorbia: 7

Structure as smiles: CSC(=O)n1c(C)cc(=O)n1Cc1nc(C(F)(F)F)ccc1C(=O)C1=C(O)C(C)(C)C(=O)C(C)(C)C1=O
Target desc: monocotyledonous and dicotyledonous test plants
Post-emergence action, Euphorbia: 9

Structure as smiles: CCOc1nn(Cc2nc(C(F)(F)F)ccc2C(=O)C2=C(O)CCCC2=O)c(=O)n1C1CC1
Target desc: monocotyledonous and dicotyledonous test plants
Post-emergence action, Euphorbia: 9

Structure as smiles: Cn1ncc(C(=O)c2ccc(C(F)(F)F)nc2Cn2cnn(C)c2=O)c1O
Target desc: monocotyledonous and dicotyledonous test plants
Post-emergence action, Euphorbia: 10

Structure as smiles: COc1nn(Cc2nc(C(F)(F)F)ccc2C(=O)C2=C(O)C(C)(C)C(=O)C(C)(C)C2=O)c(=O)s1
Target desc: monocotyledonous and dicotyledonous test plants
Post-emergence action, Euphorbia: 0

Structure as smiles: CCOc1nn(Cc2nc(C(F)(F)F)ccc2C(=O)c2cnn(C)c2O)c(=O)n1C
Target desc: monocotyledonous and dicotyledonous test plants
Post-emergence action, Euphorbia: 9
